Test system: CCRIS mutagenicity, Ames/micronucleus/aberration tests
Test: CCRIS mutagenicity studies
Conditions: Test System: AMES SALMONELLA TYPHIMURIUM; Strain/Indicator: TA98; Metabolic Activation: HAMSTER, LIVER, S-9, AROCLOR 1254; Method: PREINCUBATION
Activity calls are given as the source filed them. No rule for the calls is given here.
Hi! Could you answer with just one of these? 1 (active), 0 (inactive)

Here's what some known entries look like.
Prompt line: // param item: C1COCOC1 ; yields the recorded call
Response line: 0

Prompt line: Given CN(C)[C@@H]1C(=O)C(C(N)=O)=C(O)[C@@]2(O)C(=O)C3=C(O)c4c(O)cccc4[C@@](C)(O)[C@H]3[C@H](O)[C@@H]12 , state the outcome it received in this test.
Response line: 0

Prompt line: Recorded test call requested for C1CS1
Response line: 0

Prompt line: Any idea what this test logged for C=CCc1ccc(OC)c(OC)c1 ?
Response line: 0

Prompt line: What call does the record list for CC(=O)OC1CC(C)OC(C)O1 (configuration not stated) ?
Response line: 0

Prompt line: Tell me the assay call for COc1cc(-c2ccc(N)c(OC)c2)ccc1N please.
Response line: 1

Prompt line: Dear all, I need the recorded test outcome for CCC(Cl)C(Cl)C(Cl)CC(Cl)C(Cl)C(C)Cl (configuration not stated) , thank you.
Response line: 0

Prompt line: What did the test return for O=C1CCCCC1 ?
Response line: 0

Prompt line: Kindly provide the recorded test outcome for the following molecule: O=C(O)C1C(C(=O)O)C2(Cl)C(Cl)=C(Cl)C1(Cl)C2(Cl)Cl (configuration not stated)
Response line: 0

Prompt line: Entry C=CC1CC=CCC1 (configuration not stated) : call = ?
Response line: 0

Next:
Prompt line: Test call for this molecule, please: BrC(Br)Br
Response line: 0

Prompt line: Tell me the assay call for C=CCOC(=O)c1ccccc1C(=O)OCC=C please.
Response line: 0

Prompt line: Record request — test call for [CH3][Pb]([CH3])([CH3])[CH3]
Response line: 0

Prompt line: For OB(O)O , what call appears in the results of this test?
Response line: 0

Prompt line: Outcome? OC1CCCCC1
Response line: 0

Prompt line: Entry Nc1cc([N+](=O)[O-])ccc1O : call = ?
Response line: 1

* * *

Test system: CCRIS mutagenicity, Ames/micronucleus/aberration tests
Experiment: CCRIS mutagenicity studies
Settings: End Point: IN VITRO CHROMOSOMAL ABERRATIONS; Test System: CHINESE HAMSTER OVARY CELLS; Metabolic Activation: RAT, LIVER, S-9, AROCLOR 1254
Active and inactive are the calls of the source. The rule behind the calls is not given here.
Mark one answer only. Choices: y for active, n for inactive

Prompt line: What did the test return for O=C1OC(=O)c2ccccc21 ?
Response line: n

Prompt line: Recorded test call requested for CC(CCl)OC(C)CCl (stereo not drawn)
Response line: y

Next:
Prompt line: So what was the verdict on c1ccc2c(c1)oc1ccccc12 in this test?
Response line: n

Prompt line: I would be grateful if you could indicate the recorded call for COc1cc(-c2ccc(N/N=C3/C(=O)c4c(N)cc(S(=O)(=O)O)cc4C=C3S(=O)(=O)O)c(OC)c2)ccc1N/N=C1/C(=O)c2c(N)cc(S(=O)(=O)O)cc2C=C1S(=O)(=O)O .
Response line: n

Prompt line: Assay result, entry Cc1cc(C(C)(C)C)c(O)c(C(C)(C)C)c1 — outcome?
Response line: n

Prompt line: Recorded test call requested for C=CCc1ccc(O)c(OC)c1
Response line: y

Prompt line: Would you mind telling me which call this test gave CC12CCC(CC1)C(C)(C)O2 ?
Response line: n

Prompt line: Lab log entry: Clc1ccc(C(c2ccccc2Cl)C(Cl)Cl)cc1 (stereo not drawn) — outcome as called in the assay?
Response line: n

* * *

Test system: CCRIS mutagenicity, Ames/micronucleus/aberration tests
Test: CCRIS mutagenicity studies
Details: Test System: AMES SALMONELLA TYPHIMURIUM; Strain/Indicator: TA1537; Metabolic Activation: RAT, LIVER, S-9, AROCLOR 1254; Method: STANDARD PLATE
Active and inactive are the calls of the source. No rule for the calls is given here.
Mark one answer only. Choices: active, inactive

Prompt line: In this assay, the call recorded for C=CC(=O)OCCCCOC(=O)C=C was what?
Response line: inactive

Continuing:
Prompt line: Query: recorded result category for C=CCc1ccc(O)c(OC)c1 in this test
Response line: inactive

Prompt line: Could you check what this test reported for O=C(Nc1ccc2c(O)c(N=Nc3ccc(N=Nc4ccc(S(=O)(=O)O)cc4)cc3)c(S(=O)(=O)O)cc2c1)c1ccccc1 ?
Response line: inactive

Prompt line: Per the records of this test, what outcome belongs to CC(C)C[C@H]1C(=O)N2CCC[C@H]2[C@]2(O)O[C@](NC(=O)[C@@H]3C[C@@H]4c5cccc6[nH]cc(c56)C[C@H]4N(C)C3)(C(C)C)C(=O)N12 ?
Response line: inactive

* * *

Test system: CCRIS mutagenicity, Ames/micronucleus/aberration tests
Assay: CCRIS mutagenicity studies
Conditions: Test System: Mouse lymphoma; Strain/Indicator: L5178Y (tk+/tk-); Metabolic Activation: None; Method: Suspension/plate
The source made the active and inactive calls. The rule behind the calls is not given here.
Reported property: mutagenic call

Prompt line: Give the measured mutagenic call of C=CC(=O)OCC(CC)(COC(=O)C=C)COC(=O)C=C .
Response line: active; positive

Prompt line: Please look up its mutagenic call: C[O+](C)C.[Cl][Sb-]([Cl])([Cl])([Cl])([Cl])[Cl]
Response line: inactive; negative

Prompt line: Could you tell me which mutagenic call is on file for O=C(O)C1=NN(c2ccc(S(=O)(=O)O)cc2)C(=O)C1N=Nc1ccc(S(=O)(=O)O)cc1 (stereo not given) ?
Response line: inactive; negative

Prompt line: Give the measured mutagenic call of Oc1ccc2c(c1)OCO2 .
Response line: active; positive

Prompt line: Which mutagenic call reading was recorded for the compound N#CSCSC#N ?
Response line: inactive; negative

Prompt line: So what does the record say about mutagenic call for c1ccc(-c2ccnc3c2ccc2c(-c4ccccc4)ccnc23)cc1 ?
Response line: active; positive

Continuing:
Prompt line: Give its mutagenic call value. Item: Cc1ccccc1Cl
Response line: inactive; negative

Prompt line: Which mutagenic call value is on record for O=C1N=NC(=O)C2C=CC=CC12 (stereo not given) ?
Response line: inactive; negative

Prompt line: Any idea what its mutagenic call is? The compound is OC/C=C/c1ccccc1
Response line: inactive; negative

* * *

Test system: CCRIS mutagenicity, Ames/micronucleus/aberration tests
Experiment: CCRIS mutagenicity studies
Settings: Test System: UDS RAT HEPATOCYTES; Strain/Indicator: THY INCORP; Metabolic Activation: NONE; Method: AUTORADIOGRAPHY
Description: The CCRIS database contains chemical records with carcinogenicity, mutagenicity, tumor promotion, and tumor inhibition test results. It was developed by the National Cancer Institute (NCI). Data are derived from studies cited in primary journals, current awareness tools, NCI reports, and other sources. Test results have been reviewed by experts in carcinogenesis and mutagenesis. CCRIS provides historical information from the years 1985 - 2011. It is no longer updated. […]
Active and inactive are the calls of the source. The rule behind the calls is not given here.
Respond with a class label; see label 1 = active, label 0 = inactive

Prompt line: Please indicate how the test categorized BrC(Br)Br .
Response line: label 0

Prompt line: Per the records of this test, what outcome belongs to CC(C)N(CC(O)COc1cccc2ccccc12)N=O (stereo not given) ?
Response line: label 1

Prompt line: Check the results log: what was the call for Cc1c2ccccc2c(C)c2c1ccc1ccccc12 ?
Response line: label 1

Prompt line: Per the assay record, what outcome was assigned to CN(C)c1ccc(N=Nc2ccc3ncsc3c2)cc1 ?
Response line: label 1

Others:
Prompt line: Per the assay record, what outcome was assigned to CC(=O)Nc1ccc2c(c1)Cc1ccccc1-2 ?
Response line: label 1

Prompt line: Status in this test for ClC(Cl)(Cl)Cl ?
Response line: label 0

Prompt line: Status in this test for C/C=C1/C[C@@H](C)[C@@](C)(O)C(=O)OCC2=CCN3CC[C@@H](OC1=O)[C@@H]23 ?
Response line: label 1

Prompt line: Call for entry C/C=C1\C[C@@H](C)[C@](C)(O)C(=O)OC[C@H]2CCN3CC[C@@H](OC1=O)C23 (stereo not given in full) :
Response line: label 0

Prompt line: Tell me the recorded outcome of this test for CC(C)=C/C(C)=N/Nc1nncc2ccccc12 .
Response line: label 0

Prompt line: Given CC1=CC(=O)CC(C)(C)C1 , state the outcome it received in this test.
Response line: label 1

Prompt line: Fill in: this test's call for C=CC(=O)O is ___
Response line: label 0

Prompt line: Given CCCCOCCOCCO , state the outcome it received in this test.
Response line: label 0

Prompt line: Which outcome was entered for the compound Cc1cccn2c1nc1ccc(N)nc12 in this test?
Response line: label 0

Prompt line: Per the records of this test, what outcome belongs to C[C@@](Cc1ccc(O)c(O)c1)(NN)C(=O)O ?
Response line: label 0

Prompt line: Dear all, I need the recorded test outcome for N#Cc1cc([N+](=O)[O-])ccc1N=Nc1ccc(N(CCO)CCO)cc1 , thank you.
Response line: label 0

Values from PubChem BioAssay AID1259407
